List of logarithmic value of ratio of IC40 values values.
system: NIH3T3 cells overexpressing cystatin alpha; assay: MTT cell viability, cystatin alpha overexpressing cells vs parental line; format: cell-based, mouse; settings: cystatin alpha high-expressing cells / parental cell line, 3 to 4 days
Form: value (number only, do not type unit).

[
  {
    "COMPOUND": "C=C[C@@]1(C)CC(=O)[C@]2(O)[C@@]3(C)[C@@H](O)CCC(C)(C)[C@@H]3[C@H](O)[C@H](OC(C)=O)[C@@]2(C)O1",
    "NUMERIC_VALUE": 0.72
  },
  {
    "COMPOUND": "C=CC1=C(C)c2cc3[n-]c(cc4nc(cc5[n-]c(cc1n2)c(C)c5CCC(=O)O)C(CCC(=O)O)=C4C)c(C)c3C=C.[Cl-].[Cl-].[Sn+4]",
    "NUMERIC_VALUE": 0.00
  },
  {
    "COMPOUND": "Nc1nc2nc[nH]c2c(=S)[nH]1",
    "NUMERIC_VALUE": 0.60
  }
]

Entry "C=C[C@]1(C)CC[C@@H](C(=C)C)C[C@H]1C(=C)C" ; logarithmic value of ratio of IC40 values = 0.08

Entry "CC(=O)OCOC(=O)CN(CC(=O)OCOC(C)=O)c1ccccc1OCCOc1ccccc1N(CC(=O)OCOC(C)=O)CC(=O)OCOC(C)=O" ; logarithmic value of ratio of IC40 values = 0.34

Entry "O=CN/C=C/c1cc(O)ccc1O" ; logarithmic value of ratio of IC40 values = 0.08

Entry "O=c1c(-c2ccc(O)cc2)coc2cc(O)cc(O)c12" ; logarithmic value of ratio of IC40 values = 0.28

Entry "CO[C@H]1[C@@H](OC)C[C@H](C)[C@@H](OC)C2=CC(=O)C=C(NC(=O)/C(C)=C/C=C\[C@H](OC)[C@@H](OC(N)=O)/C(C)=C/[C@@H]1C)C2=O" ; logarithmic value of ratio of IC40 values = −0.12

---

List of logarithmic value of ratio of IC40 values values.
tested on: NIH3T3 cells overexpressing HNF4; test: MTT cell viability, HNF4 overexpressing cells vs parental line; assay type: cell-based, mouse; settings: HNF4 high-expressing cells / parental cell line, 3 to 4 days
Form: value (number only, do not type unit).

Example entries and their recorded answers appear below.
[
  {
    "COMPOUND": "O=[As]O [NaAsO2, sodium arsenite]",
    "NUMERIC_VALUE": 0.00
  },
  {
    "COMPOUND": "CO[C@H]1[C@@H](OC)C[C@H](C)[C@@H](OC)C2=CC(=O)C=C(NC(=O)/C(C)=C/C=C\\[C@H](OC)[C@@H](OC(N)=O)/C(C)=C/[C@@H]1C)C2=O",
    "NUMERIC_VALUE": "−0.08"
  },
  {
    "COMPOUND": "CN[C@@H]1C[C@H]2O[C@@](C)([C@@H]1OC)n1c3ccccc3c3c4c(c5c6ccccc6n2c5c31)C(=O)NC4",
    "NUMERIC_VALUE": 0.04
  },
  {
    "COMPOUND": "C[C@@H]1O[C@@H](O[C@H]2C[C@@H](O)[C@]3(CO)[C@H]4[C@H](O)C[C@]5(C)[C@@H](C6=CC(=O)OC6)CC[C@]5(O)[C@@H]4CC[C@]3(O)C2)[C@H](O)[C@H](O)[C@H]1O",
    "NUMERIC_VALUE": "−0.08"
  },
  {
    "COMPOUND": "CNc1ccc2oc(C[C@H]3O[C@@]4(CC[C@H]3C)O[C@H]([C@H](C)C(=O)c3ccc[nH]3)[C@H](C)C[C@H]4C)nc2c1C(=O)O",
    "NUMERIC_VALUE": 0.19
  },
  {
    "COMPOUND": "Nc1nc2nc[nH]c2c(=S)[nH]1",
    "NUMERIC_VALUE": 0.00
  },
  {
    "COMPOUND": "COC(=O)[C@@]1(O)C[C@H]2O[C@]1(C)n1c3ccccc3c3c4c(c5c6ccccc6n2c5c31)C(=O)NC4 [K252a]",
    "NUMERIC_VALUE": "−0.22"
  },
  {
    "COMPOUND": "C=CC1=C(C)c2cc3[n-]c(cc4nc(cc5[n-]c(cc1n2)c(C)c5CCC(=O)O)C(CCC(=O)O)=C4C)c(C)c3C=C.[Cl-].[Cl-].[Sn+4]",
    "NUMERIC_VALUE": 0.46
  }
]

Entry "C=C1[C@@H](O)[C@@H]2O[C@]3(CC[C@H](/C=C/[C@@H](C)[C@@H]4CC(C)=C[C@@]5(O[C@H](C[C@@](C)(O)C(=O)O)CC[C@H]5O)O4)O3)CC[C@H]2O[C@@H]1[C@@H](O)C[C@H](C)[C@H]1O[C@@]2(CCCCO2)CC[C@H]1C" ; logarithmic value of ratio of IC40 values = 0.08

Entry "C/C=C(/C)C(=O)O[C@H]1C(C)=C2[C@H]([C@@H]1OC(=O)CCCCCCC)[C@@](C)(OC(C)=O)C[C@H](OC(=O)CCC)[C@@]1(O)[C@H]2OC(=O)[C@@]1(C)O" ; logarithmic value of ratio of IC40 values = 0.00

Entry "CCCC[C@@H](C)/C=C(C)/C=C(\C)C(=O)NC1=C[C@@](O)(/C=C/C=C/C=C/C(=O)NC2=C(O)CCC2=O)[C@@H]2O[C@@H]2C1=O" ; logarithmic value of ratio of IC40 values = 0.00

Entry CN(C)CCCn1cc(C2=C(c3c[nH]c4ccccc34)C(=O)NC2=O)c2ccccc21 [GF109203X] ; logarithmic value of ratio of IC40 values = 0.40

Entry "COc1ccc2c(c1)CC[C@@H]1[C@@H]2CC[C@]2(C)[C@@H](NCCCCCCN3C(=O)C=CC3=O)CC[C@@H]12" ; logarithmic value of ratio of IC40 values = 0.00

Entry "CC(=O)OCOC(=O)CN(CC(=O)OCOC(C)=O)c1ccccc1OCCOc1ccccc1N(CC(=O)OCOC(C)=O)CC(=O)OCOC(C)=O" ; logarithmic value of ratio of IC40 values = −0.10

Entry C[C@@H]1C[C@@H]([C@H](O)CC2CC(=O)NC(=O)C2)C(=O)[C@@H](C)C1 [CHX, cycloheximide] ; logarithmic value of ratio of IC40 values = 0.22

---

List of logarithmic value of ratio of IC40 values values.
tested on: NIH3T3 cells overexpressing m-calpain; assay: MTT cell viability, m-calpain overexpressing cells vs parental line; assay type: cell-based, mouse; settings: m-calpain high-expressing cells / parental cell line, 3 to 4 days
Non-standard residues stand in square brackets, D forms with d. Residues, ends and D or L forms follow the SMILES beside them. Nle = CCCC[C@H](N)C(=O)O
Form: value (number only, do not type unit).

Example entries and their recorded answers appear below.
[
  {
    "MOLECULE": "O=CN/C=C/c1cc(O)ccc1O",
    "NUMERIC_VALUE": 0.00
  },
  {
    "MOLECULE": "CN(C)CCCn1cc(C2=C(c3c[nH]c4ccccc34)C(=O)NC2=O)c2ccccc21 [GF109203X]",
    "NUMERIC_VALUE": 0.35
  },
  {
    "MOLECULE": "CO[C@H]1[C@@H](OC)C[C@H](C)[C@@H](OC)C2=CC(=O)C=C(NC(=O)/C(C)=C/C=C\\[C@H](OC)[C@@H](OC(N)=O)/C(C)=C/[C@@H]1C)C2=O",
    "NUMERIC_VALUE": 0.00
  },
  {
    "MOLECULE": "CCCC[C@@H](C)/C=C(C)/C=C(\\C)C(=O)NC1=C[C@@](O)(/C=C/C=C/C=C/C(=O)NC2=C(O)CCC2=O)[C@@H]2O[C@@H]2C1=O",
    "NUMERIC_VALUE": 0.05
  }
]

Entry CCCC[C@@H](C=O)NC(=O)[C@H](CC(C)C)NC(=O)[C@H](CC(C)C)NC(C)=O [ALLN] (Ac-Leu-Leu-[Nle]-aldehyde) ; logarithmic value of ratio of IC40 values = 0.00

Entry "C=C[C@]1(C)CC[C@@H](C(=C)C)C[C@H]1C(=C)C" ; logarithmic value of ratio of IC40 values = 0.00

Entry "CC(=O)OCOC(=O)CN(CC(=O)OCOC(C)=O)c1ccccc1OCCOc1ccccc1N(CC(=O)OCOC(C)=O)CC(=O)OCOC(C)=O" ; logarithmic value of ratio of IC40 values = 0.00

Entry "CC(C)(C)C(=O)Oc1ccc(S(=O)(=O)Nc2ccccc2C(=O)NCC(=O)O)cc1" ; logarithmic value of ratio of IC40 values = −0.04

Entry "CNc1ccc2oc(C[C@H]3O[C@@]4(CC[C@H]3C)O[C@H]([C@H](C)C(=O)c3ccc[nH]3)[C@H](C)C[C@H]4C)nc2c1C(=O)O" ; logarithmic value of ratio of IC40 values = 0.26

Entry "Nc1nc2nc[nH]c2c(=S)[nH]1" ; logarithmic value of ratio of IC40 values = 0.29
